pIC50: −log10 of the molar value.
Observed pIC50, system UniProt:Q99685.
Sequence (Q99685 whole entry, species assumed): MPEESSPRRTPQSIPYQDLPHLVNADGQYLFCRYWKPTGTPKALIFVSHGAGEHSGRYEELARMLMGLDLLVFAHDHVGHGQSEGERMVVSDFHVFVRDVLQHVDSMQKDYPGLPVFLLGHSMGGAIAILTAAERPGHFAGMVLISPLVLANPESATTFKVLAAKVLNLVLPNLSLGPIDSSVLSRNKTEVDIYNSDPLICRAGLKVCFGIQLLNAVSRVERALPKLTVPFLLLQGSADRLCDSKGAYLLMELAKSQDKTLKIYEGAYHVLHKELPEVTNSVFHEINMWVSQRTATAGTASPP
QUANTITY_MEASURED: pIC50

Would you please look over these solved cases?
1. O=C(N1CC(c2cnc(N3CC[C@H](C(F)(F)F)C3)nc2)C1)N1CC2(CC(c3nc(C4CC4)n[nH]3)C2)C1 (single isomer, unassigned) [compound 266]: 8.53
2. O=C(N1CC2(CCN(Cc3ccc(C(F)(F)F)nc3)CC2)C1)N1CC2(CC(c3nnc(C4CC4)[nH]3)C2)C1 [compound 176]: 8.06
3. NC(=O)c1ccc(CC2CC3(C2)CN(C(=O)N2CC4(CC(c5nc(C6CC6)n[nH]5)C4)C2)C3)cc1OC(F)(F)F [compound 913]: 9.36
4. CNc1ccc(C(=O)N2CCN(C(=O)N3CC4(CC(c5nnc(C6CC6)[nH]5)C4)C3)CC2)cc1 [Example 871]: 6.47

a. CS(=O)(=O)c1ccc(COC2CN(C(=O)N3CC4(CC(c5nnc(C6CC6)[nH]5)C4)C3)C2)cc1 [compound 333]
b. CS(=O)(=O)c1cc(CC2CC3(C2)CN(C(=O)N2CC4(CC(c5nc(C6(O)CC6)n[nH]5)C4)C2)C3)cc(C(F)(F)F)c1 [compound 670]
Query: Hi there! Just curious which has the higher pIC50 between a and b . Identify your selection by its label.
Reply: b
